# System: VRE12204
# assay.summary: MIC, microdilution broth method
# Assay type: cell-based, Enterococcus faecium
# conditions: VRE12204; in µg/mL
outcome.measure: MIC
One number for each entry.

Worked cases, MIC given:
| compound | system | MIC |
| --- | --- | --- |
| O=C(O)c1cn(C2CC2)c2cc(N3CCN(Cc4ccc5ccccc5c4)CC3)c(F)cc2c1=O [ML-77-036] | VRE12204 | 2 |
| C[C@H]1COc2c(N3CCC(n4cccn4)CC3)c(F)cc3c(=O)c(C(=O)O)cn1c23 [ML-83-041] | VRE12204 | 16 |
| O=C(O)c1cn(C2CC2)c2cc(N3CCNCC3)c(F)cc2c1=O [Ciprofloxacin, ciprofloxacin, reference compound] | VRE12204 | 1 |
| CCn1cc(C(=O)O)c(=O)c2cc(F)c(N3CCN(Cc4ccc(CO)cc4)CC3)cc21 [ML-77-148] | VRE12204 | 8 |
| C[C@H]1COc2c(N3CCCN(c4cnccn4)CC3)c(F)cc3c(=O)c(C(=O)O)cn1c23 [ML-83-041 (5.16)] | VRE12204 | 4 |
| C[C@H]1COc2c(N3CCN(c4ccccn4)CC3)c(F)cc3c(=O)c(C(=O)O)cn1c23 [ML-83-0018] | VRE12204 | 2 |
| O=C(O)c1cn(C2CC2)c2cc(N3CCN(c4cccc5ccccc45)CC3)c(F)cc2c1=O [ML-77-168] | VRE12204 | 1 |
| CN(C)c1ccc(CN2CCN(c3cc4c(cc3F)c(=O)c(C(=O)O)cn4C3CC3)CC2)cc1 [ML-77-112] | VRE12204 | 1 |

Now turn to the next compound.
// Input: CCn1cc(C(=O)O)c(=O)c2cc(F)c(N3CCN(Cc4cccc(COC)c4)CC3)cc21 [ML-83-037] . Output its MIC only.
16

====

# Test system: EC12923
# assay.summary: MIC, microdilution broth method
# Assay type: cell-based
# conditions: EC12923; in µg/mL
outcome.measure: MIC

Worked cases, MIC given:
| smiles.record | system | MIC |
| --- | --- | --- |
| C[C@H]1COc2c(N3CCCN(c4cnccn4)CC3)c(F)cc3c(=O)c(C(=O)O)cn1c23 | EC12923 | 1-2 |
| Cc1cc(N2CCN(c3c(F)cc4c(=O)c(C(=O)O)cn5c4c3OC[C@@H]5C)CC2)nc(C(C)C)n1 | EC12923 | 1-8 |

Now turn to the next compound.
// Input: `C[C@H]1COc2c(N3CCN(c4ccccn4)CC3)c(F)cc3c(=O)c(C(=O)O)cn1c23` . Output its MIC only.
2-4

====

For each record, write down the corresponding MIC.
# Test system: VRE12204
# assay.summary: MIC, microdilution broth method
# Type: cell-based, Enterococcus faecium
# conditions: VRE12204; in µg/mL

Worked cases, MIC given:
| smiles.record | system | value |
| --- | --- | --- |
| O=C(O)c1cn(C2CC2)c2cc(N3CCN(Cc4ccccc4)CC3)c(F)cc2c1=O | VRE12204 | 4-8 |
| O=C(O)c1cn(C2CC2)c2cc(N3CCN(Cc4ccc(-c5csnn5)cc4)CC3)c(F)cc2c1=O | VRE12204 | 4-8 |

Hi! Can you tell me MIC for each of these compounds?
1. CCn1cc(C(=O)O)c(=O)c2cc(F)c(N3CCN(Cc4ccc(-n5cccc5)cc4)CC3)cc21
2. O=C(O)c1cn(C2CC2)c2cc(N3CCN(Cc4cccc5ccsc45)CC3)c(F)cc2c1=O

1: 4-8; 2: 1-2

Hi! Can you tell me MIC for each of these compounds?
1. CCn1cc(C(=O)O)c(=O)c2cc(F)c(N3CCN(Cc4cccc5ccsc45)CC3)cc21
2. CCn1cc(C(=O)O)c(=O)c2cc(F)c(N3CCN(Cc4cccc5c4CCCC5)CC3)cc21
3. CCn1cc(C(=O)O)c(=O)c2cc(F)c(N3CCN(Cc4cc(=O)[nH]c5ccccc45)CC3)cc21
4. C[C@H]1COc2c(N3CCN(Cc4cccc5ccccc45)CC3)c(F)cc3c(=O)c(C(=O)O)cn1c23

1-2
1-2
>32
1-2
